Sourced from patent US20040038855A1

# assayedTarget: UniProtKB Q99705
# Sequence (Q99705 whole entry): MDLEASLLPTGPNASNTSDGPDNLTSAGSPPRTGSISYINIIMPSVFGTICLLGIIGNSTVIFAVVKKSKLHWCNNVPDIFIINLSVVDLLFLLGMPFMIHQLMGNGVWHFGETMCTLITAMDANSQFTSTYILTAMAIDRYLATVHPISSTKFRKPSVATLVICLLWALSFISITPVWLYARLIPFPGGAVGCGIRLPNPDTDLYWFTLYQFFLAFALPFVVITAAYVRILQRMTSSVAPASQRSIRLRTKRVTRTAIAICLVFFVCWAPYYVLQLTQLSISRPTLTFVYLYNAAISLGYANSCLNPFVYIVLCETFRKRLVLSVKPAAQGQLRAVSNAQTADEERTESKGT
# experimentalDetails: Competition binding, membrane preparations of A293 cells expressing the human MCH1 receptor, [3H] Compound 10 as radioligand
# Set-up: expressed in transfected cells
# conditionNotes: Table 3b; A293 cell membranes, [3H] Compound 10; read-out: hMCH1* Ki
# Method: TRITIATED METHYL (4S)-3-{[(3-{4-[3-(ACETYLAMINO)PHENYL]-1-[…]}PROPYL)AMINO]CARBONYL}-4-(3,4-DIFLUOROPHENYL)-6-(METHOXYMETHYL)-2-OXO-1,2,3,4-TETRAHYDRO-5-PYRIMIDINECARBOXYLATE ([^3H] COMPOUND 10): This radiochemical synthesis was carried out by Amersham Pharmacia Biotech, Cardiff, Wales. […]
pKi: −log10 of the molar value.
Entries and their measured pKi follow.
attributeMeasured: pKi

compound: COCC1=C(C(=O)OC)[C@H](c2ccc(F)c(F)c2)N(C(=O)NCCCN2CCC(c3cccc(NC(C)=O)c3)CC2)C(=O)N1
measuredValue: 10.10
//
compound: COCC1=C(C(=O)OC)C(c2ccc(F)c(F)c2)N(C(=O)NCCCN2CC=C(c3cccc(NC(C)=O)c3)CC2)C(=O)N1 (stereo not shown)
measuredValue: 7.31
//
compound: CCCCN(CCCC)c1ccc(CNC[C@H]2CC[C@H](NC(=O)c3cccc4ccccc34)CC2)cc1
measuredValue: 6.77
//
compound: CCCCN(CCCC)c1ccc(CN2CCC(CNC(=O)N3C(=O)NC(C)=C(C(=O)OC)C3c3ccc4nonc4c3)CC2)cc1 (stereo not shown)
measuredValue: 6.33
